System: SNB-19 CNS
ASSAY NAME: NCI-60 one-dose screen, 48 h (100 = growth as untreated, 0 = no growth, -100 = all killed)
RUN CONDITIONS: 10 µM unless noted
Compounds without any hit were thinned out: in the full panel of roughly 83,000, 20% have a hit.
Kindly return True if reported growth is no lower than 90%; return False if it is lower.

{"MOLECULE": "NC(=S)N/N=C(/c1ccccc1)c1ccccc1N", "CLASS LABEL": "True"}

Query: Has O=C(Nc1ccc(Cl)cc1)Nc1ccc(Cl)c(Cl)c1 a recorded growth greater than or equal to 90%?
Response: False

Query: Is the recorded value of growth equal to or greater than 90% for this molecule? COc1ccc(C(=O)/C=C/c2cn(Cc3ccc(Cl)cc3)c3ccccc23)cc1
Response: False

Query: Given Nc1nnc2cc(Cl)ccc2n1 , state whether its growth is at least 90%.
Response: True

Query: Check this molecule for growth at or above 90%: CCNC(=O)c1[nH]cc(-c2ccc(OC)cc2)c1-c1cc(OC)c(OC)c(OC)c1
Response: False

Query: Reported growth reaches at least 90% for O=C(O)/C=C\C(=O)N1C/C(=C\c2ccccc2Cl)C(=O)/C(=C/c2ccccc2Cl)C1 ?
Response: False

Query: Identify whether the reported growth of the following molecule is 90% or greater: Cc1ccc(O)c(C(=O)O)c1
Response: True

Query: State whether the measured growth reaches 90%, counting equality as reaching it, for Clc1ccc2c(c1)c(-c1ccccc1)nc1nncn12
Response: True

Query: Reported growth reaches at least 90% for O=C(c1ccccc1)N1N=C(c2ccc(-n3ccc(C(F)(F)F)n3)cc2)CC1c1ccc[nH]1 (stereo unspecified) ?
Response: True

###

System: SK-MEL-5 melanoma
ASSAY NAME: NCI-60 one-dose screen, 48 h
RUN CONDITIONS: 10 µM unless noted
This is part of a sample that, as a whole, favours compounds with a hit. Of some 83,000 tested, about 20% had one in any assay. Calls of active or inactive are those of the source. Rule for the calls: active = growth percent below 10; inactive = the rest.
Pick one: active, inactive

Solved cases (3 shown):
{"COMPOUND": "c1ccc(-c2nn(-c3ccccc3)[n+](-c3cccc4ccccc34)n2)cc1", "CLASS LABEL": "active"}
{"COMPOUND": "C#CC(=O)Nc1cccc2c1cc(C)n2-c1nc2c(c(NCc3ccccc3)n1)CCCC2", "CLASS LABEL": "active"}
{"COMPOUND": "COc1cc(-c2nc3sccn3c2-c2ccnc(NCCNS(=O)(=O)c3ccc(F)cc3)n2)ccc1F", "CLASS LABEL": "active"}

Query: // return assay outcome for O=c1[nH]c(=O)[nH]c(=S)[nH]1
Response: inactive

Query: # lookup: test call for COc1ccc(C2=C(c3ccccc3)c3ccc(OC(C)=O)cc3OC2(C)C)cc1
Response: inactive

Query: Kindly provide the recorded test outcome for the following compound: Cc1ccc(C2CC(c3cccc(Nc4ccncc4)c3)=NN2c2ccccc2)cc1 (stereo not given)
Response: active

Query: Hi, sorry to bother you, what did the test record for CC(=O)[C@@H]1CC[C@]2(C(N)=O)CC[C@]3(C)[C@H](CC[C@@H]4[C@@]5(C)CCC(=O)C(C)(C)[C@@H]5CC[C@]43C)[C@@H]12 ?
Response: inactive

Query: Tell me the recorded outcome of this test for CS(=O)(=O)Nc1cc(-c2ccc3ncnc(Nc4ccc5[nH]ncc5c4)c3c2)cnc1Cl .
Response: inactive

Query: For C#Cc1cccc(NC(=O)Nc2ccc(NC(=O)CCl)cc2)c1 , which call appears in the assay record?
Response: active
